Ref: patent US20240376170A1

Average EC50, pSTAT5 Assay in NK cells for assorted binders
Biological target: T1, IL-2 receptor βγ complex (human, UniProt P14784 27-551; P31785 23-369)
T1 sequence (looked up) 1: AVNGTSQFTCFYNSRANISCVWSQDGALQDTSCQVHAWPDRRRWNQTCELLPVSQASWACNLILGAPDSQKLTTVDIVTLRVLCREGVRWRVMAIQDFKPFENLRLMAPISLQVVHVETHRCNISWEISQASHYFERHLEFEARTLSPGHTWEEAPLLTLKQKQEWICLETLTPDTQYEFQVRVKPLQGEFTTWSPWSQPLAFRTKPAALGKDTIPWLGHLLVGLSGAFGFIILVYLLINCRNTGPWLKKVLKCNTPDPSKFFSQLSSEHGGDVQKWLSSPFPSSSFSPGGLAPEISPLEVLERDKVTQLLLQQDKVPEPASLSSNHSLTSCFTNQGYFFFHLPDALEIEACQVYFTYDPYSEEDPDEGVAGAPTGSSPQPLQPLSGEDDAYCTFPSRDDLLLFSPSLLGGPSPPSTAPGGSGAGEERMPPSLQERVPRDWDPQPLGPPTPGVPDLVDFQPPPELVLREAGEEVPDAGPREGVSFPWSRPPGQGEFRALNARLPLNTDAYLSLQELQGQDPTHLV
T1 sequence (looked up) 2: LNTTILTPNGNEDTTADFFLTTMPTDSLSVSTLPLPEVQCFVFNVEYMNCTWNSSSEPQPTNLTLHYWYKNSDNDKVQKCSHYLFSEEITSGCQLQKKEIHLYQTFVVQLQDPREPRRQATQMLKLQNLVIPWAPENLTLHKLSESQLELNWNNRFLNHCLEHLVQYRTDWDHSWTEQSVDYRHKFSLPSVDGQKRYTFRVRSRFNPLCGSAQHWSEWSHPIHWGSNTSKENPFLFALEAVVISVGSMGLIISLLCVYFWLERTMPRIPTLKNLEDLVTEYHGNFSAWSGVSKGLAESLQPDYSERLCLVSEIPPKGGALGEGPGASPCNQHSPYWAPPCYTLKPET
Assay: cell-based or functional assay
Bridges are numbered along the chain shown (N, C = ends). Primed or numbered codes have the meaning given here. [ ]: non-standard residue; d: D form. 8x polyethylene glycol‑amino = O-(8x polyethylene glycol-amino)-tyrosine, SITE 45; 9x polyethylene glycol‑azido = O-(9x polyethylene glycol-azido)-tyrosine, SITE 42; Ygp(4) = Tyr with amino-capped PEG8 (O-(8x polyethylene glycol-amino)-tyrosine); Yn3(4) = Tyr with azide-capped PEG9 (O-(9x polyethylene glycol-azido)-tyrosine); Ygp(8) = Tyr, amino-capped PEG8 (O-(8x polyethylene glycol-amino)-tyrosine); Yn3(8) = Tyr, azide-capped PEG9 (O-(9x polyethylene glycol-azido)-tyrosine); Ygp″ = O-(8x polyethylene glycol-amino)-tyrosine; Yn3″ = O-(9x polyethylene glycol-azido)-tyrosine; PEG4′ = 4x polyethylene glycol; hSer = N[C@@H](CCO)C(=O)O; Nle = CCCC[C@H](N)C(=O)O
Your answer should be a plain number; it is taken to be in nM.

1. CMP-313, uPa cleaved molecule (ligand, also: K23 side chain attached to another sequence, m81 after uPa cleavage, product not given here as a sequence) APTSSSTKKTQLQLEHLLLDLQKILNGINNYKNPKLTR[Nle]L[hSer]Y(9x polyethylene glycol‑azido)KFY(8x polyethylene glycol‑amino)[Nle]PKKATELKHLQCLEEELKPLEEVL[hSer]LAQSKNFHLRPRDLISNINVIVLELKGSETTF[hSer]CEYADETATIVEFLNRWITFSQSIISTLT
0.081
2. CMP-320 (ligand, lactam N-34) SGRVAPQPLVDAPTSSSTKKTQLQLEHLLLDLQEILNGINNYKNPKLTR[Nle]L[hSer][Yn3(8)]KF[Ygp(8)][Nle]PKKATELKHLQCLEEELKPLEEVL[hSer]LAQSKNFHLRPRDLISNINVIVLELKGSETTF[hSer]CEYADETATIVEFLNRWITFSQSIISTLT
13.2
3. CMP-326, uPa cleaved molecule (ligand, not fully specified; ends and bridges not checked; also: Lys9-Glu23 peptide bridge cut by uPa, fragments left on side chains not given here) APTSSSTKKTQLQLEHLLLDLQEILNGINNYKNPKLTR[Nle]L[hSer][Yn3″]KF[Ygp″][Nle]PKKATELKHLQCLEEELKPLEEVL[hSer]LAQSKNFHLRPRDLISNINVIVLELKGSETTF[hSer]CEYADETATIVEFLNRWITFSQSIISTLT
18

Query binder follows.
For the binder shown here, CMP-300 (ligand, lactam N-31; ends not checked) GPLGLAG[PEG4′]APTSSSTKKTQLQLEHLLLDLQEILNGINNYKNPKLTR[Nle]L[hSer][Yn3(4)]KF[Ygp(4)][Nle]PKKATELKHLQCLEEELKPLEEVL[hSer]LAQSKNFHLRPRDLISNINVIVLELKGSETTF[hSer]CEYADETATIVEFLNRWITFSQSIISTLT , give the reported Average EC50, pSTAT5 Assay in NK cells. 38.1
